Assay: NCI Yeast Anticancer Drug Screen. Data for the mec2-1 strain (AID 157)
Conditions: S. cerevisiae mec2-1 strain, at 100.0 µM
Procedure: Growth inhibition of yeast strains with defined genetic alterations is measured as a screen for potential anti-cancer activity. Selected strains with alterations in DNA damage repair or cell cycle control were exposed to compounds and growth inhibition was measured relative to vehicle treated controls. The strain used in this assay is mec2-1
Compounds without any hit were thinned out: in the full panel of roughly 79,000, 15% have a hit. Calls of active or inactive are those of the source. Cut-off read from the data, not from the text of the source: active = growth inhibition above about 70%; inactive = the rest.
Pick from YES for active, NO for inactive when you respond.

Short answer needed: outcome of this test for "Cc1ccc(S(=O)(=O)NC(=O)C2C(=O)CC3(CCCCC3)CC2=O)cc1" ?
YES

Short answer needed: outcome of this test for COC1/C=C\C=C(/C)C(=O)NC2=CC(=O)C(=O)C(=C2O)CC(C)CC(OC)C(O)C(C)/C=C(\C)C1OC(N)=O (stereo not drawn) ?
YES

Short answer needed: outcome of this test for "CC1(C)CC(=O)C(C=NC(=S)C(N)=S)=C(O)C1" ?
YES

Short answer needed: outcome of this test for "CC(C)N(CCCNc1c2ccccc2nc2cccc([N+](=O)[O-])c12)C(C)C" ?
YES

Short answer needed: outcome of this test for "COC(=O)C(=O)CC(=O)c1cccc(OC)c1" ?
NO

Short answer needed: outcome of this test for "CCOP(=O)(OCC)/C(C#N)=C/c1ccc(-c2ccc(F)cc2F)o1" ?
NO

Short answer needed: outcome of this test for "COc1ccc2nc3cccc([N+](=O)[O-])c3c(NCCCCCC(=O)O)c2c1" ?
YES

Short answer needed: outcome of this test for "O=P(C(=S)Nc1c(Cl)cccc1Cl)(c1ccccc1)c1ccccc1" ?
YES

Short answer needed: outcome of this test for "CCCCCCCN1C(=O)c2ccccc2C1=O" ?
NO

Short answer needed: outcome of this test for "CCCCS(=O)(=O)Nc1ccc(Nc2c3ccccc3nc3ccccc23)c(OC)c1" ?
YES

Short answer needed: outcome of this test for "CC(=O)/C=C/c1cccc([N+](=O)[O-])c1" ?
YES

Short answer needed: outcome of this test for O=CC1(F)CC1(c1ccccc1)c1ccccc1 (stereo not drawn) ?
YES

Short answer needed: outcome of this test for "S=C(NCc1ccccn1)N/N=C/c1ccccn1" ?
YES

Short answer needed: outcome of this test for "CCC(C)(C)c1ccc(Oc2ccccc2)c(N)c1" ?
YES

Short answer needed: outcome of this test for "O=[N+]([O-])c1ccc(C(c2c[nH]c3ccccc23)c2c[nH]c3ccccc23)cc1" ?
YES

Short answer needed: outcome of this test for "NC(=S)N1N=C2c3ccccc3CC[C@@H]2[C@@H]1c1ccccc1" ?
YES

Short answer needed: outcome of this test for "CC(C)CCC[C@@H](C)[C@H]1CC[C@H]2[C@@H]3CC[C@H]4C[C@H](N)CC[C@]4(C)[C@H]3CC[C@]12C" ?
NO

Short answer needed: outcome of this test for "Nc1ccc2cc(Br)ccc2c1Br" ?
NO

Short answer needed: outcome of this test for "CCCCOc1ccc2nc(C)cc(N=[N+]=[N-])c2c1" ?
YES

Short answer needed: outcome of this test for "Cc1oc2ccccc2c(=O)c1Cn1nnc2ccccc21" ?
NO

Short answer needed: outcome of this test for "NNc1ccccc1-c1nc2ccccc2[nH]1" ?
NO

Short answer needed: outcome of this test for COc1ccc(C(OCC2OC(n3cnc4c(=O)n(Cc5ccccc5[N+](=O)[O-])nnc43)C(O)C2O)(c2ccccc2)c2ccc(OC)cc2)cc1 (stereo not drawn) ?
NO

Short answer needed: outcome of this test for CC1(C)C(O)OC(O)C1(C)C (stereo not drawn) ?
NO
